# measurementTarget: human CRFR1 (Homo sapiens (Human), UniProt P34998)
# Sequence (P34998 24-415): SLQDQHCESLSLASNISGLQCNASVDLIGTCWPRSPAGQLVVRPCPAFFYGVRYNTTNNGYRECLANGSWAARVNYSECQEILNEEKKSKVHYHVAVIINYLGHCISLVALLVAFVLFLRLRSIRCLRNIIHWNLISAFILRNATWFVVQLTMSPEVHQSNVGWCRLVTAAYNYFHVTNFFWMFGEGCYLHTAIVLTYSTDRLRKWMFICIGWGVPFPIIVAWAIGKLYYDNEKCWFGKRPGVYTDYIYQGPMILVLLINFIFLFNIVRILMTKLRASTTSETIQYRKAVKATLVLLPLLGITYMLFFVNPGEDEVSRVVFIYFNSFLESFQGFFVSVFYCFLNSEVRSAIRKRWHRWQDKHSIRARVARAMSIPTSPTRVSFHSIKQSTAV
# protocolDetails: CRFR1 Binding Test;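 also: nonspecific binding was determined with a 4,000-fold excess of unlabelled sauvagine and subtracted from every reading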
# appliedConditions: competition with 100 pM 125I-CRF, SPA method, membrane fraction of human CRFR1-expressing HEK293 cells; read-out: CRF1 receptor binding capacity IC50
pIC50: −log10 of the molar value.
measuredQuantity: pIC50

Record excerpt, results attached:
1) CCCN(c1c(OCC)nn2c(-c3c(OC)cc(COC)cc3OC)csc12)C1CCOCC1: 7.12
2) CCCN(c1ccccn1)c1c(OC)nn2c(-c3c(OC)cc(COC)cc3OC)csc12: 7.48
3) CCCCN(CC1COCOC1)c1c(OC)nn2c(-c3c(OC)cc(COC)cc3OC)csc12: 7.15
4) COCc1cc(OC)c(-c2csc3c(N(CCCF)c4cccnc4)c(OC)nn23)c(OC)c1: 7.28
5) CCCCN(c1c(SC)nn2c(-c3c(OC)cc(COC)cc3OC)csc12)C1CCOCC1: 7.08

(1) COCCCN(c1c(OC)nn2c(-c3c(OC)cc(COC)cc3OC)csc12)C1CCC1
(2) COCc1cc(OC)c(-c2csc3c(N(CC4CC4)CC(C)OC)c(OC)nn23)c(OC)c1 (centres unmarked)
Problem: Given the entries 1 and 2 , determine which has the lower reported pIC50. Please indicate the selected item by its label.
1

(A) COCc1cc(OC)c(-c2c(SC)sc3c(N(CC4CCOCC4)CC4CC4)c(C)nn23)c(OC)c1
(B) COCc1cc(OC)c(-c2csc3c(N(CC4CC4)c4cccnc4)c(OC)nn23)c(OC)c1
(C) COCCN(c1c(OC)nn2c(-c3c(OC)cc(COC)cc3OC)csc12)C1CCC1
(D) COCCN(c1c(OC)nn2c(-c3c(OC)cc(COC)cc3OC)csc12)C1CCCC1
Place the items in sequence of falling pIC50. Give the labels in the order requested.
D, C, B, A

(A) COCc1cc(OC)c(-c2csc3c(N(CCCF)Cc4cccnc4)c(OC)nn23)c(OC)c1
(B) COCc1cc(OC)c(-c2csc3c(N(CC4CC4)CC4COCOC4)c(OC)nn23)c(OC)c1
Problem: Given the entries A and B , determine which has the lower reported pIC50. Please indicate the selected item by its label.
B
(B: 7.04, A: 7.24)
